Target: Histamine H1 (Homo sapiens)
Sequence (P35367 whole entry): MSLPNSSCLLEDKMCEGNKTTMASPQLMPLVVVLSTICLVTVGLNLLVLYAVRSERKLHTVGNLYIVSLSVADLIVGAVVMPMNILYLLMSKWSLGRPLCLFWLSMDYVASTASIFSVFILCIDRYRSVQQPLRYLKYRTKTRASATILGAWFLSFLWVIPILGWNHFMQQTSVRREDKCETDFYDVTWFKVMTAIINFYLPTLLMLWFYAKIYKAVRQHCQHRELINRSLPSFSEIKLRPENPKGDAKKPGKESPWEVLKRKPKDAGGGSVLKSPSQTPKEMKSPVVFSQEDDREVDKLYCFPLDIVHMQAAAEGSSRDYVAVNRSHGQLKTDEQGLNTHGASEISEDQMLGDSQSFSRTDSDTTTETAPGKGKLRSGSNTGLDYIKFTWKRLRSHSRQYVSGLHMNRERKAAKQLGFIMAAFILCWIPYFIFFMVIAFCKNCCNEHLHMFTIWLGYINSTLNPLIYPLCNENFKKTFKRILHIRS
TEST READOUT: Ki

{"CHEM SMILES": "O=C(O)C(O)C(O)C(=O)O.OCc1nn(-c2ncccc2F)cc1CN1CCC2(CC1)OCC(F)(F)c1cc(Cl)sc12", "TGT": "Histamine H1 (Homo sapiens)", "MEAS VALUE": "> 5 µM"}

---

Molecular target: human ORL1 receptors (Homo sapiens)
Construct: expressed in transfected cells; host or cells: CHO cells (membranes)
Sequence (P41146 whole entry): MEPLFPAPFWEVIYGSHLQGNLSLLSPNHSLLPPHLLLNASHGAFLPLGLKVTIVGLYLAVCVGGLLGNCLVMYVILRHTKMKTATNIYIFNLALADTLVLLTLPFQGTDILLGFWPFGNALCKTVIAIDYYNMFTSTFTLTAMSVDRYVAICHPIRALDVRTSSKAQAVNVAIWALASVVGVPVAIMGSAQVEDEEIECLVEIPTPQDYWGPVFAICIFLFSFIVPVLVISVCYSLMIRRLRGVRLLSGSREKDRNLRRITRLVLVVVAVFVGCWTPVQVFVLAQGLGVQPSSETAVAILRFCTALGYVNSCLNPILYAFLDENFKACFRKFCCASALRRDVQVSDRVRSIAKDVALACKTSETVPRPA
Assay: [3H]-OFQ/nociceptin receptor binding assay
TEST READOUT: Ki (nM)

{"CHEM SMILES": "O=C(O)C(O)C(O)C(=O)O.OCc1nn(-c2ncccc2F)cc1CN1CCC2(CC1)OCC(F)(F)c1cc(Cl)sc12", "MEAS VALUE": 0.45}
{"CHEM SMILES": "Cc1nn(-c2ncccc2Cn2cccn2)cc1CN1CCC2(CC1)OCC(F)(F)c1cc(Cl)sc12.O=C(O)C(O)C(O)C(=O)O", "MEAS VALUE": 0.79}

---

Molecular target: 5-HT1B (Homo sapiens)
Sequence (P28222 whole entry, species assumed): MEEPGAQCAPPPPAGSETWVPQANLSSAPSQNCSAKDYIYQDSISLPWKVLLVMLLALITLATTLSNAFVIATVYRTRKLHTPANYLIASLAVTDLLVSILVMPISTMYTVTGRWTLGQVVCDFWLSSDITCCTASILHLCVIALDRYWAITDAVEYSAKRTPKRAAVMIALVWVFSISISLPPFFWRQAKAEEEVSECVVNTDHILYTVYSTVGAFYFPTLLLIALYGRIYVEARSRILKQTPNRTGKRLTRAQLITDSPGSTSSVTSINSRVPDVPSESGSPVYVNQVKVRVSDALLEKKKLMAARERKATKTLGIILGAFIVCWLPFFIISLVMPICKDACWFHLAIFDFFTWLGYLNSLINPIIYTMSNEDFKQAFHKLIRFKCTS
Assay: Radioligand binding selectivity, 5-HT1B
pKi: −log10 of the molar value.

{"MOLECULE": "O=C(O)C(O)C(O)C(=O)O.OCc1nn(-c2ncccc2F)cc1CN1CCC2(CC1)OCC(F)(F)c1cc(Cl)sc12 [Example 53]", "pKi": "< 5.45"}

---

Biological target: 5-HT1E (Homo sapiens)
Sequence (P28566 whole entry, species assumed): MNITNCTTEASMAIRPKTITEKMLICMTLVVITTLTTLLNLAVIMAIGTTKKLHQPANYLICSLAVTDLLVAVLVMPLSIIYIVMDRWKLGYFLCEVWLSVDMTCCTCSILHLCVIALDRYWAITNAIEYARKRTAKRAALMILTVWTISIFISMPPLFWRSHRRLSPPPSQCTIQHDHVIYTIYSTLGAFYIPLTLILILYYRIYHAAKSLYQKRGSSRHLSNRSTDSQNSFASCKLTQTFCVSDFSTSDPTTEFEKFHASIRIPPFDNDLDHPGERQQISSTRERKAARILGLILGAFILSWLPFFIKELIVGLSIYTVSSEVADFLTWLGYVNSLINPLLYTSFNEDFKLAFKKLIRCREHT
Assay: Radioligand binding selectivity, 5-HT1E
Settings: read-out: Ki 5-HT1E

{"CHEM SMILES": "Cc1nn(-c2ncccc2CO)cc1CN1CCC2(CC1)OCC(F)(F)c1cc(Cl)sc12", "Ki": "> 5.37 µM"}

---

pKi: recorded values
Target: Mu Opioid (Homo sapiens, UniProt P35372)
Sequence (P35372 whole entry): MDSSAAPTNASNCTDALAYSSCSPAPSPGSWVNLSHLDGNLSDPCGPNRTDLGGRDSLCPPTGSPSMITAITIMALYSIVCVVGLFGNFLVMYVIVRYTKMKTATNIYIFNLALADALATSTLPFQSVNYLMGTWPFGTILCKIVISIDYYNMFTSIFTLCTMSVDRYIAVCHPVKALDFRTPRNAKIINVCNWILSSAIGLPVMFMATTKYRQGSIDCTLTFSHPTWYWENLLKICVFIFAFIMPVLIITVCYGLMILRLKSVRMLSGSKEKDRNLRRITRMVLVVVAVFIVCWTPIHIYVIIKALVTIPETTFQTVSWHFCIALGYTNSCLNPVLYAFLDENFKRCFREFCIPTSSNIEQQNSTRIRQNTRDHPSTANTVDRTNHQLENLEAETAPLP
Test: Radioligand binding selectivity, Mu Opioid
pKi: −log10 of the molar value.
TEST READOUT: pKi

{"COMPOUND": "Cc1nn(-c2ncccc2Cn2cccn2)cc1CN1CCC2(CC1)OCC(F)(F)c1cc(Cl)sc12.O=C(O)C(O)C(O)C(=O)O [Example 23]", "TEST READOUT": "pKi", "MEAS VALUE": "< 6.35"}
{"COMPOUND": "O=C(O)C(O)C(O)C(=O)O.OCc1nn(-c2ncccc2F)cc1CN1CCC2(CC1)OCC(F)(F)c1cc(Cl)sc12 [Example 53]", "TEST READOUT": "pKi", "MEAS VALUE": "< 6.35"}

---

Molecular target: Delta Opioid (Homo sapiens)
Assay: Radioligand binding selectivity, Delta Opioid
Source text: Similarly, Ki for the mu, kappa and delta opioids, serotonin, dopamine, adrenergic, mucarinic, and histamine receptors, as well as binding to the norepinephrine transporter, sodium channel, chloride channel, and calcium channel may be determined using membranes expressing the desired receptor/transporter/channels and appropriate corresponding radioligand competitor molecules.
pKi: −log10 of the molar value.
pKi: recorded values
TEST READOUT: pKi

{"COMPOUND": "Cc1nn(-c2ncccc2Cn2cccn2)cc1CN1CCC2(CC1)OCC(F)(F)c1cc(Cl)sc12.O=C(O)C(O)C(O)C(=O)O [Example 23]", "MEAS VALUE": "< 6.32"}
{"COMPOUND": "O=C(O)C(O)C(O)C(=O)O.OCc1nn(-c2ncccc2F)cc1CN1CCC2(CC1)OCC(F)(F)c1cc(Cl)sc12 [Example 53]", "MEAS VALUE": "< 6.32"}

---

In what follows, each item is paired with its Ki for Adenosine A3 (Homo sapiens).

{"MOLECULE": "Cc1nn(-c2ncccc2CO)cc1CN1CCC2(CC1)OCC(F)(F)c1cc(Cl)sc12 [Example 62]", "Ki": "> 5 µM"}
{"MOLECULE": "O=C(O)C(O)C(O)C(=O)O.OCc1nn(-c2ncccc2F)cc1CN1CCC2(CC1)OCC(F)(F)c1cc(Cl)sc12 [Example 53]", "Ki": "> 5 µM"}

---

Biological target: 5-HT5 (Homo sapiens, UniProt P47898)
Sequence (P47898 whole entry): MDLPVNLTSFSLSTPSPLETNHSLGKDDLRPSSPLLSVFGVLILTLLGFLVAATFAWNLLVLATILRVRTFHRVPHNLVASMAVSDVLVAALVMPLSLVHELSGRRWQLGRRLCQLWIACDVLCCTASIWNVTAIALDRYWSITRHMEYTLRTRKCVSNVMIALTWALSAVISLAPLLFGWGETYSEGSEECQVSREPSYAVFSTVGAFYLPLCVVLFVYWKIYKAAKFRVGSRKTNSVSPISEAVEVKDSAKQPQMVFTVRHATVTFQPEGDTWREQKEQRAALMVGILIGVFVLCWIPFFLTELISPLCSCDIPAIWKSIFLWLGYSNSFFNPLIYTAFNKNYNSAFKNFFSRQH
Assay: Radioligand binding selectivity, 5-HT5
Settings: read-out: Ki 5-HT5
pKi: −log10 of the molar value.

{"CHEM SMILES": "Cc1nn(-c2ncccc2CO)cc1CN1CCC2(CC1)OCC(F)(F)c1cc(Cl)sc12", "pKi": "< 5.04"}

---

Target: Muscarinic M2 (Homo sapiens, UniProt P08172)
Sequence (P08172 1-466): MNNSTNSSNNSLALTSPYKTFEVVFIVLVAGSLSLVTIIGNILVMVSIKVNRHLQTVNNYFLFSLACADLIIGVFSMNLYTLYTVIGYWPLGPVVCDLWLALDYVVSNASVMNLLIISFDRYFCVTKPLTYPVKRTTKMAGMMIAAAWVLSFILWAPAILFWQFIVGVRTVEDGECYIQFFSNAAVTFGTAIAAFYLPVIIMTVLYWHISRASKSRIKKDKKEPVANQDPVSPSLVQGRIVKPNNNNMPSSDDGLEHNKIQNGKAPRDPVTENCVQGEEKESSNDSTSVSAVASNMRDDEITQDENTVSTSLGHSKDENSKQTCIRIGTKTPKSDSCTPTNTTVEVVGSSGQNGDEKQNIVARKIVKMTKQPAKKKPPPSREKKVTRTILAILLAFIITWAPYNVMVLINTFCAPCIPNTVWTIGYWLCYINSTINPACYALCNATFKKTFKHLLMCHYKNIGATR
Assay: Radioligand binding selectivity, Muscarinic M2
Conditions: read-out: Ki Muscarinic M2
TEST READOUT: Ki

{"CHEM SMILES": "Cc1nn(-c2ncccc2CO)cc1CN1CCC2(CC1)OCC(F)(F)c1cc(Cl)sc12", "TGT": "Muscarinic M2 (Homo sapiens, UniProt P08172)", "MEAS VALUE": "> 0.5 µM"}

---

Biological target: 5-HT1F (Homo sapiens, UniProt P30939)
Sequence (P30939 whole entry, species assumed): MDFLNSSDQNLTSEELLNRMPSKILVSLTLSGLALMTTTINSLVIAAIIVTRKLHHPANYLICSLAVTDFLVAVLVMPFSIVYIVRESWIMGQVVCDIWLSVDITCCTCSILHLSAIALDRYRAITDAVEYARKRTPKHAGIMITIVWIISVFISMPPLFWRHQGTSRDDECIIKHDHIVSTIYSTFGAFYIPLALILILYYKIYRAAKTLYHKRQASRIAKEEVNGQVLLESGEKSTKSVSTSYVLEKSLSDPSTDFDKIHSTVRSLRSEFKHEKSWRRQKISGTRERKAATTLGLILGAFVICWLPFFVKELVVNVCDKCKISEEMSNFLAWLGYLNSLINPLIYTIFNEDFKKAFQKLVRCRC
Assay: Radioligand binding selectivity, 5-HT1F
pKi: −log10 of the molar value.
TEST READOUT: pKi

{"COMPOUND": "O=C(O)C(O)C(O)C(=O)O.OCc1nn(-c2ncccc2F)cc1CN1CCC2(CC1)OCC(F)(F)c1cc(Cl)sc12 [Example 53]", "TGT": "5-HT1F (Homo sapiens, UniProt P30939)", "MEAS VALUE": "< 5.07"}

---

Molecular target: human ORL1 receptors (Homo sapiens)
Construct: expressed in transfected cells; host or cells: CHO cells (membranes)
Assay: [3H]-OFQ/nociceptin receptor binding assay
Conditions: [3H]OFQ 0.2 nM, CHO cell membranes; read-out: Ki ORL-1
pKi: −log10 of the molar value.
TEST READOUT: pKi

{"COMPOUND": "Cc1nn(-c2ncccc2CO)cc1CN1CCC2(CC1)OCC(F)(F)c1cc(Cl)sc12 [Example 62]", "MEAS VALUE": 9.74}

---

Biological target: 5-HT4 (Homo sapiens)
Sequence (Q13639 whole entry, species assumed): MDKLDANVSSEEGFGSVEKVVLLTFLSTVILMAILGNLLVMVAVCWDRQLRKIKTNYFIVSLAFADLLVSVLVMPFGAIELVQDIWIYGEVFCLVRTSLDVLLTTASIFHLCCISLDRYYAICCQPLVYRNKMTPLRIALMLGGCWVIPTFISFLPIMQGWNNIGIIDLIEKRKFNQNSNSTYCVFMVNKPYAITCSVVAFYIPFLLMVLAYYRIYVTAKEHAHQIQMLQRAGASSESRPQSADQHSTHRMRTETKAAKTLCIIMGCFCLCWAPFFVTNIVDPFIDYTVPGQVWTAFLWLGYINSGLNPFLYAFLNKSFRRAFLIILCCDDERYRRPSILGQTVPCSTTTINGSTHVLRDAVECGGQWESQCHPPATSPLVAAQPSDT
Assay: Radioligand binding selectivity, 5-HT4
pKi: −log10 of the molar value.

{"CHEM SMILES": "O=C(O)C(O)C(O)C(=O)O.OCc1nn(-c2ncccc2F)cc1CN1CCC2(CC1)OCC(F)(F)c1cc(Cl)sc12", "pKi": "< 5.39"}

---

Target: 5-HT1D (Homo sapiens)
Sequence (P28221 whole entry, species assumed): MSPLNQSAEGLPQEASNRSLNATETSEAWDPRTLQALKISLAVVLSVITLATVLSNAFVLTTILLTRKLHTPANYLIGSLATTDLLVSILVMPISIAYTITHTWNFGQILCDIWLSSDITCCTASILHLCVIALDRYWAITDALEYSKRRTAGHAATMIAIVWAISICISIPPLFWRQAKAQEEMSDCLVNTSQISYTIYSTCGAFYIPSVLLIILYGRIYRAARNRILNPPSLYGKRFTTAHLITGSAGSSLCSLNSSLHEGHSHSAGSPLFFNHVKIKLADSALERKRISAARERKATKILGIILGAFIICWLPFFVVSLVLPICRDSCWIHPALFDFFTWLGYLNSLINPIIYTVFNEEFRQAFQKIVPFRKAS
Experiment: Radioligand binding selectivity, 5-HT1D
pKi: −log10 of the molar value.
TEST READOUT: pKi

{"CHEM SMILES": "O=C(O)C(O)C(O)C(=O)O.OCc1nn(-c2ncccc2F)cc1CN1CCC2(CC1)OCC(F)(F)c1cc(Cl)sc12", "MEAS VALUE": "< 5.07"}

---

Biological target: Delta Opioid (Homo sapiens, UniProt P41143)
Sequence (P41143 whole entry): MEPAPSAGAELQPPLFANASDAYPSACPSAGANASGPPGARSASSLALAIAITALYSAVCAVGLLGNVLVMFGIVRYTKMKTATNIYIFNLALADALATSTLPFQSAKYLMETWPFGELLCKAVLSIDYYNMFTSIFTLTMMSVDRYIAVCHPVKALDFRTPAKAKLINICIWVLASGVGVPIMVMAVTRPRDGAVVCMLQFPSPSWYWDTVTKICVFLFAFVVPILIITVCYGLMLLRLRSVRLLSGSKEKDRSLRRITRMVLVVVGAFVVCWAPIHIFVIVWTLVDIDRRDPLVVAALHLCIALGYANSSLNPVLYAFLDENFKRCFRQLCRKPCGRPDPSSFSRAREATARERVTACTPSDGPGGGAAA
Assay: Radioligand binding selectivity, Delta Opioid
Settings: read-out: Ki Delta Opioid
pKi: −log10 of the molar value.

{"MOLECULE": "Cc1nn(-c2ncccc2CO)cc1CN1CCC2(CC1)OCC(F)(F)c1cc(Cl)sc12 [Example 62]", "pKi": "< 6.32"}

---

Target: Mu Opioid (Homo sapiens, UniProt P35372)
Assay: Radioligand binding selectivity, Mu Opioid
Details: read-out: Ki Mu Opioid

{"CHEM SMILES": "Cc1nn(-c2ncccc2CO)cc1CN1CCC2(CC1)OCC(F)(F)c1cc(Cl)sc12", "Ki": "> 451 nM"}
